# credit: patent US12139520B2

Consider the following binders; for each one, report its hAM1R EC50 (cAMP).
- target_desc: hAM1R (human, UniProt Q16602)
- protocol_summary: cell-based or functional assay
Numbered stars: 1 amine (or outer) side, 2 acyl side, 3 side chain; on linkers, the order of the positions; unused ones are H or OH. Bridge positions count the residues as written; N and C are the ends. Square brackets hold non-standard residues; d marks the D form. Ends that are not written are not given here. * marks the point of attachment. C20 diacid = O=C(O)CCCCCCCCCCCCCCCCCCC(=O)*; γGlu = O=C(O)[C@H](CCC(=O)[*:2])N[*:1]; Hyp = O=C(O)[C@@H]1C[C@@H](O)CN1; Cit = NC(=O)NCCC[C@H](N)C(=O)O

Query string: Please indicate hAM1R EC50 (cAMP) recorded for KCNTATCTVQRLAHQIYQFTDKDKANVAPPTNVGSNG[Hyp]-NH2 (disulfide 2-7 (inferred); ends not checked) [SEQ ID NO: 26]
Result string: > 5 µM

Query string: Please indicate hAM1R EC50 (cAMP) recorded for {C20 diacid-γGlu}-KCNTATCTVQRLAHQIAQFTDKDKDPVAPPTNVGSNS[Hyp]-NH2 (disulfide 2-7 (inferred); ends not checked) [SEQ ID NO: 120]
Result string: > 5 µM

Query string: Please indicate hAM1R EC50 (cAMP) recorded for {C20 diacid-γGlu}-KCNTATCTVQRLAHQIYQFTDKDKDNVAPPTKVGSNG[Hyp]-NH2 (disulfide 2-7 (inferred); not fully specified; ends not checked) [SEQ ID NO: 60]
Result string: > 5 µM

Query string: Please indicate hAM1R EC50 (cAMP) recorded for GCRTGTCTVQWLAHQIYQFTDKDKDNVAPRSNIGPQG[Hyp]-NH2 (disulfide 2-7 (inferred); ends not checked) [SEQ ID NO: 359]
Result string: > 5 µM

Query string: Please indicate hAM1R EC50 (cAMP) recorded for GCRWGTCTVQRLAHQIYQFTDKDKDNVAPRSKISPQT[Hyp]-NH2 (disulfide 2-7 (inferred); ends not checked) [SEQ ID NO: 150]
Result string: > 5 µM

Query string: Please indicate hAM1R EC50 (cAMP) recorded for GCRTGTCTVQWLAHQIYQFTDKDKDNVAPRTKVGPQGY [SEQ ID NO: 354]
Result string: > 5 µM

Query string: Please indicate hAM1R EC50 (cAMP) recorded for KCNTSTCTVA[Cit]LADQITQFSDKDKANVSPPTEVGPNS[Hyp]-NH2 (disulfide 2-7 (inferred); ends not checked) [SEQ ID NO: 247]
Result string: > 5 µM

Query string: Please indicate hAM1R EC50 (cAMP) recorded for GCRTGTCTVQRLAHQIYQFTDKFKDNVAPRSKISPQTM [SEQ ID NO: 215]
Result string: > 5 µM

Query string: Please indicate hAM1R EC50 (cAMP) recorded for {C20 diacid-γGlu}-KCNTATCTVARLAHQINQFTDKDKDNVAPPTNVGSNG[Hyp]-NH2 (disulfide 2-7 (inferred); not fully specified; ends not checked) [SEQ ID NO: 86]
Result string: > 5 µM

Query string: Please indicate hAM1R EC50 (cAMP) recorded for KCNTATCTVQRLAHQIYQATDKDKDNVAPPTNVGSNG[Hyp]-NH2 (disulfide 2-7 (inferred); ends not checked) [SEQ ID NO: 114]
Result string: > 5 µM

Query string: Please indicate hAM1R EC50 (cAMP) recorded for GCRTGTCTVQWLAHQIYQFTDKDKDNVAPRSNIGPNG[Hyp]-NH2 (disulfide 2-7 (inferred); ends not checked) [SEQ ID NO: 352]
Result string: 1.12 µM

Query string: Please indicate hAM1R EC50 (cAMP) recorded for RCNASTCTVNRLADQITQFSNKDKAQVSPPTEVGPNS[Hyp]-NH2 (disulfide 2-7 (inferred); ends not checked) [SEQ ID NO: 9]
Result string: > 5 µM

Query string: Please indicate hAM1R EC50 (cAMP) recorded for {C20 diacid-γGlu}-KCNTATCTVQRLAHQITQFTDKDKDNVAPPTNVGSNG[Hyp]-NH2 (disulfide 2-7 (inferred); ends not checked) [SEQ ID NO: 22]
Result string: > 5 µM

Query string: Please indicate hAM1R EC50 (cAMP) recorded for KCNTATCTVQ[Cit]LAHQIYQFTDKDKDNVPPTNVGSNG[Hyp]-NH2 (disulfide 2-7 (inferred); ends not checked) [SEQ ID NO: 254]
Result string: > 5 µM

Query string: Please indicate hAM1R EC50 (cAMP) recorded for GCRFGTCTVQWLAHFLYQFTDKDKDNVAPRTNVGSNTY [SEQ ID NO: 327]
Result string: > 5 µM

Query string: Please indicate hAM1R EC50 (cAMP) recorded for GCRFGTCTVQRLAHQIYQFTDKDKDNVAPRTKVGPQG[Hyp]-NH2 (disulfide 2-7 (inferred); ends not checked) [SEQ ID NO: 45]
Result string: 0.0505 µM

Query string: Please indicate hAM1R EC50 (cAMP) recorded for KCNTATCTVQWLAHQIYQFADKDKDNVAPPTNVGSNG[Hyp]-NH2 (disulfide 2-7 (inferred); ends not checked) [SEQ ID NO: 313]
Result string: > 5 µM

Query string: Please indicate hAM1R EC50 (cAMP) recorded for GCRTGTCTVQRLAHQIYQFTDKDKDNVAPRTNISPQG[Hyp]-NH2 (disulfide 2-7 (inferred); ends not checked) [SEQ ID NO: 214]
Result string: 2.98 µM
